Hi there, I'd appreciate the recorded Ratio IC50 for every entry that follows.
- Species: Homo sapiens
- experimentalProtocol: Selectivity index, ratio of IC50 N-terminal GST-tagged human ROCK1 catalytic domain (1 to 477 residues) expressed in baculovirus expression system to IC50 for N-terminal GST-fused full-length human CDC7 (1 to 574 end residues)/DBF4 (1 to 674 residues) expressed in baculovirus expression system
Give the value as a plain number.

## Task Value lookup for Ratio IC50; key = `Cc1n[nH]cc1-c1cc2nc([C@@H]3CCN3)[nH]c(=O)c2s1`
## Result 360

## Task I'd like to know its Ratio IC50. The compound in question is `Cc1n[nH]cc1-c1cc2nc([C@@H]3CCC(C)(C)N3)[nH]c(=O)c2s1`
## Result 790

## Task Can you look up the measured Ratio IC50 of `Cc1n[nH]cc1-c1cc2nc([C@@H]3CCCN3C)[nH]c(=O)c2s1` for me?
## Result 84

## Task Please report the recorded Ratio IC50 for `Cc1n[nH]cc1-c1cc2nc([C@@H]3CCCCCN3)[nH]c(=O)c2s1` .
## Result 380

## Task # query: Ratio IC50 of entry `Cc1n[nH]cc1-c1cc2nc([C@@H]3CC=CCN3)[nH]c(=O)c2s1`
## Result 640

## Task Any idea what its Ratio IC50 is? The compound is `Cc1n[nH]cc1-c1cc2nc([C@@H]3CCCN3)[nH]c(=O)c2s1`
## Result 510

## Task Recorded Ratio IC50 of `Cc1n[nH]cc1-c1cc2nc([C@]3(C)CCCN3)[nH]c(=O)c2s1` , please.
## Result 28

## Task Give the measured Ratio IC50 of `Cc1n[nH]cc1-c1cc2nc([C@@H]3C[C@H](C)CN3)[nH]c(=O)c2s1` .
## Result 480

## Task Which Ratio IC50 is reported for this compound? `Cc1n[nH]cc1-c1cc2nc([C@H]3NCC[C@@H]3C)[nH]c(=O)c2s1`
## Result 210

## Task What Ratio IC50 value was documented for this compound, `Cc1n[nH]cc1-c1cc2nc(C34CCC(CC3)N4)[nH]c(=O)c2s1` ?
## Result 600
